target: T1, cynomolgus monkey IgE (cynomolgus monkey); assay: capture ELISA, antibody coated; Test 1, Cyno 5 serum
T1 construct: serum was used as the source of IgE; also called cynomolgus IgE; cyno IgE
Each record here notes measured IgE concentration detected.
Measure name: IgE concentration detected (ng/mL)

[[record]]
binder = "6.605.1 Hc-H3Q,M13K,D82E Lc-T25A,T53S (antibody, human IgG2, kappa, V domains shown, human IgG2 kappa; the entries already hold the substitutions; also called 6.605.1 (H3Q,M13K,D82E-T25A,T53S); 6.605.1 QKE/AS) VH: QVQLVQSGAEVKKPGASVKVSCKASGYTFTSYGISWVRQAPGQGLEWMGWISAYNGNTNYAQKLQGRITMTTDTSTSTAYMELRSLRSDDTAVYYCARDGDYYDPFDYWGQGTLVTVSS VL: DIQMTQSPSSLSASVGDRVTITCRASQSISNWLNWYQQKPGKAPKLLIYGASSLKSGVPSRFSGSESGTDFTLTISSLQPEDFATYYCQQSYSTPPTFGQGTKVEIKR"
measure_name = "IgE concentration detected"
readout_unit = "ng/mL"
test_result = 173

[[record]]
binder = "recombinant 5.396.1 (antibody, human IgG2, kappa, V domains shown, human IgG2 kappa, expressed in 293 Freestyle cells; also called 5.396.1 (recombinant)) VH: QVQLQQWGAGLLKPSETLSLTCAVYGGSFSGYYWSWIRQPPGKGLEWIGEIHHSGSTNYNPSLKSRVTISVDTSKNQFSLKLSSVTAADTAVYYCARDNWNDSFYYYYGMDVWGQGTTVTVSS VL: DIQMTQSPSSLSASVGDRVTITCRASQGISNHLAWFQQKPGKAPKSLIYAASSLQSGVPSKFSGSGSGTDFTLTISSLQPEDFATYYCQQYNRHPFTFGPGTKVDIKR"
measure_name = "IgE concentration detected"
readout_unit = "ng/mL"
test_result = 37

[[record]]
binder = "recombinant 6.605.1 (antibody, human IgG2, kappa, V domains shown, human IgG2 kappa; also called 6.605.1 (recombinant)) VH: QVHLVQSGAEVKMPGASVKVSCKASGYTFTSYGISWVRQAPGQGLEWMGWISAYNGNTNYAQKLQGRITMTTDTSTSTAYMDLRSLRSDDTAVYYCARDGDYYDPFDYWGQGTLVTVSS VL: DIQMTQSPSSLSASVGDRVTITCRTSQSISNWLNWYQQKPGKAPKLLIYGASTLKSGVPSRFSGSESGTDFTLTISSLQPEDFATYYCQQSYSTPPTFGQGTKVEIKR"
measure_name = "IgE concentration detected"
readout_unit = "ng/mL"
test_result = 140

[[record]]
binder = "5.396.1 Hc-S103N Lc-K61R (antibody, human IgG2, kappa, V domains shown, human IgG2 kappa; the entries already hold the substitutions S103N (Hc) and K61R (Lc); also called 5.396.1 (S103N/K61R); 5.396.1 N/R) VH: QVQLQQWGAGLLKPSETLSLTCAVYGGSFSGYYWSWIRQPPGKGLEWIGEIHHSGSTNYNPSLKSRVTISVDTSKNQFSLKLSSVTAADTAVYYCARDNWNDNFYYYYGMDVWGQGTTVTVSS VL: DIQMTQSPSSLSASVGDRVTITCRASQGISNHLAWFQQKPGKAPKSLIYAASSLQSGVPSRFSGSGSGTDFTLTISSLQPEDFATYYCQQYNRHPFTFGPGTKVDIKR"
measure_name = "IgE concentration detected"
readout_unit = "ng/mL"
test_result = 57


// data source = patent US20110064726A1
